Values from ChEMBL document CHEMBL1201862

Test system: SNB-78
assay.protocol: NCI tumour cell line growth inhibition, 48 h
The source made the active and inactive calls. Cut-off read from the data, not from the text of the source: active = GI50 up to about 1.1 µM and inactive = higher.
measurement.label: GI50

[
  {
    "compound": "CC1(C)OCN(c2ccc(Cl)cc2)Cn2c1nc1ccccc12",
    "system.tested": "SNB-78",
    "GI50": "> 100 µM (inactive)"
  },
  {
    "compound": "N#CC12Cc3cc4c(cc3-c3cccc(c31)CCN2C(=O)c1ccccc1)OCO4 (stereo not drawn)",
    "system.tested": "SNB-78",
    "GI50": "51.6 µM (inactive)"
  },
  {
    "compound": "O=c1c(Cc2ccccc2)c(O)cc2n1CCC2",
    "system.tested": "SNB-78",
    "GI50": "> 100 µM (inactive)"
  },
  {
    "compound": "O=S1(=O)C[C@H](O)[C@H](O)CS1",
    "system.tested": "SNB-78",
    "GI50": "> 100 µM (inactive)"
  },
  {
    "compound": "Cc1[nH]c(=O)nc(N/N=C/c2ccc(Cl)cc2)c1C(=O)Nc1ccc(Cl)cc1",
    "system.tested": "SNB-78",
    "GI50": "> 100 µM (inactive)"
  },
  {
    "compound": "O=C1NC(=O)/C(=N\\c2cccc3c(=O)[nH][nH]c(=O)c23)C(c2nc3ccccc3s2)C1=O (stereo not drawn)",
    "system.tested": "SNB-78",
    "GI50": "> 100 µM (inactive)"
  },
  {
    "compound": "Cc1c(N)nc([C@H](CC(N)=O)NC[C@H](N)C(N)=O)nc1C(=O)N[C@H](C(=O)N[C@H](C)[C@@H](O)[C@H](C)C(=O)N[C@H](C(=O)NCCc1nc(-c2nc(C(=O)NCCC[S+](C)C)cs2)cs1)[C@@H](C)O)C(OC1OC(CO)C(O)C(O)C1OC1OC(CO)C(O)C(OC(N)=O)C1O)c1c[nH]cn1 (stereo partly drawn)",
    "system.tested": "SNB-78",
    "GI50": "20.8 µM (inactive)"
  }
]

// switching to the query compound
q: Quote GI50 reported for CCCCCCCCCCCCCS(=O)(=O)NCC(N)=O please.
a: > 100 µM (inactive)
